Measured CC50 values are reported for all entries that follow.
- Method summary: Cytotoxicity against human MT4 cells assessed as reduction in cell viability by MTT assay
- Type: toxicity, cell-based
Give just the number in µM; leave the unit off.

Below, 3 compounds whose answers are already recorded.
INSERT INTO assay_data (smiles_structure, result_unit, numeric_value) VALUES
  ('Cc1cc(C#N)cc(C)c1Oc1cc(-c2ccoc2)nc(NC2CCN(Cc3ccc(S(C)(=O)=O)cc3)CC2)n1', 'µM', 22.6),
  ('Cc1cc(C#N)cc(C)c1Oc1cc(-c2cncnc2)nc(NC2CCN(Cc3ccc(C(N)=O)cc3)CC2)n1', 'µM', 41.6),
  ('Cc1cc(C#N)cc(C)c1Oc1cc(-c2ccncc2)nc(NC2CCN(Cc3ccc(C(N)=O)cc3)CC2)n1', 'µM', 21.2);

Can you look up the measured CC50 of Cc1cc(C#N)cc(C)c1Oc1cc(-c2ccccc2)nc(NC2CCN(Cc3ccc(S(N)(=O)=O)cc3)CC2)n1 for me?
18

Look at this compound and give its reported CC50. Cc1cc(C#N)cc(C)c1Oc1cc(-c2ccco2)nc(NC2CCN(Cc3ccc(C(N)=O)cc3)CC2)n1
24

For the compound Cc1cc(C#N)cc(C)c1Oc1cc(-c2cccs2)nc(NC2CCN(Cc3ccc(S(N)(=O)=O)cc3)CC2)n1 , what CC50 is on record?
24.6

Which CC50 reading was recorded for the compound Cc1cc(C#N)cc(C)c1Oc1cc(-c2ccoc2)nc(NC2CCN(Cc3ccc(S(N)(=O)=O)cc3)CC2)n1 ?
29.5

What value of measured CC50 is listed for Cc1cc(C#N)cc(C)c1Oc1cc(-c2cccnc2)nc(NC2CCN(Cc3ccc(S(C)(=O)=O)cc3)CC2)n1 ?
20.6

----------
- Test system: Human immunodeficiency virus 1
- Method summary: Antiviral activity against HIV-1 harboring RT Y188L mutant infected in human MT4 cells assessed as protection against virus-induced cytopathic effect by MTT assay
- Format: functional, organism-based
- Measurement context: Human immunodeficiency virus 1, MT4
EC50 under 0.04 µM gets fulfilled, anything at or over 0.04 µM gets not fulfilled.

INSERT INTO results (smiles_structure, classification) VALUES
  ('Cc1ccnc2c1NC(=O)c1cccnc1N2C1CC1', 'not fulfilled'),
  ('Cc1cc(C#N)cc(C)c1Oc1cc(-c2cccnc2)nc(NC2CCN(Cc3ccc(C(N)=O)cc3)CC2)n1', 'fulfilled'),
  ('Cc1cc(C#N)cc(C)c1Oc1cc(-c2cccnc2)nc(NC2CCN(Cc3ccc(S(C)(=O)=O)cc3)CC2)n1', 'fulfilled'),
  ('Cc1cc(C#N)cc(C)c1Oc1cc(-c2ccncc2)nc(NC2CCN(Cc3ccc(S(N)(=O)=O)cc3)CC2)n1', 'not fulfilled'),
  ('Cc1cc(C#N)cc(C)c1Oc1cc(-c2ccncc2)nc(NC2CCN(Cc3ccc(S(C)(=O)=O)cc3)CC2)n1', 'not fulfilled');

Bench note: check whether Cc1cc(C#N)cc(C)c1Oc1cc(-c2ccccc2)nc(NC2CCN(Cc3ccc(S(C)(=O)=O)cc3)CC2)n1 shows EC50 below 0.04 µM
fulfilled

Is EC50 of O=C1Nc2ccc(Cl)cc2[C@@](C#CC2CC2)(C(F)(F)F)O1 strictly below 0.04 µM?
not fulfilled

Just wondering, is EC50 of Cc1cc(C#N)cc(C)c1Oc1cc(-c2cccs2)nc(NC2CCN(Cc3ccc(C(N)=O)cc3)CC2)n1 below 0.04 µM?
not fulfilled

----------
- Method summary: Selectivity index, ratio of CC50 for human MT4 cells to EC50 for wild-type HIV-1 IIIB infected in human MT4 cells
- Type: toxicity, cell-based
- Measurement context: read-out: Ratio CC50/EC50
Parameter measured: selectivity ratio
Write no unit; give the number alone.

Record excerpt, results attached:
INSERT INTO measurements (smiles_structure, parameter_measured, numeric_value) VALUES
  ('Cc1cc(C#N)cc(C)c1Oc1cc(-c2ccoc2)nc(NC2CCN(Cc3ccc(C(N)=O)cc3)CC2)n1', 'selectivity ratio', 3610),
  ('Cc1cc(C#N)cc(C)c1Oc1cc(-c2ccccc2)nc(NC2CCN(Cc3ccc(S(N)(=O)=O)cc3)CC2)n1', 'selectivity ratio', 3000),
  ('Cc1cc(C#N)cc(C)c1Oc1cc(-c2cccs2)nc(NC2CCN(Cc3ccc(S(N)(=O)=O)cc3)CC2)n1', 'selectivity ratio', 2320),
  ('Cc1cc(C#N)cc(C)c1Oc1cc(-c2ccoc2)nc(NC2CCN(Cc3ccc(S(C)(=O)=O)cc3)CC2)n1', 'selectivity ratio', 4060),
  ('Cc1cc(C#N)cc(C)c1Oc1cc(-c2ccco2)nc(NC2CCN(Cc3ccc(C(N)=O)cc3)CC2)n1', 'selectivity ratio', 1550),
  ('Cc1cc(C#N)cc(C)c1Oc1cc(-c2ccoc2)nc(NC2CCN(Cc3ccc(S(N)(=O)=O)cc3)CC2)n1', 'selectivity ratio', 3150),
  ('Cc1cc(C#N)cc(C)c1Oc1cc(-c2ccco2)nc(NC2CCN(Cc3ccc(S(C)(=O)=O)cc3)CC2)n1', 'selectivity ratio', 3640),
  ('Cc1cc(C#N)cc(C)c1Oc1cc(-c2ccncc2)nc(NC2CCN(Cc3ccc(S(C)(=O)=O)cc3)CC2)n1', 'selectivity ratio', 6460);

Please find the next compound below.
Query: selectivity ratio; subject: Cc1cc(C#N)cc(C)c1Oc1cc(-c2ccccc2)nc(NC2CCN(Cc3ccc(S(C)(=O)=O)cc3)CC2)n1
2670

----------
- Test system: Human immunodeficiency virus 1
- Method summary: Antiviral activity against HIV-1 harboring RT Y181C mutant infected in human MT4 cells assessed as protection against virus-induced cytopathic effect by MTT assay
- Type: functional, organism-based
- Measurement context: Human immunodeficiency virus 1, MT4
Parameter pEC50: see the listing below.
In plain terms, pEC50 is the concentration in mol/L turned into minus its base-10 logarithm.

Study these solved cases before continuing.
INSERT INTO assay_data (smiles_structure, parameter_measured, numeric_value) VALUES
  ('Cc1cc(C#N)cc(C)c1Oc1cc(-c2ccccc2)nc(NC2CCN(Cc3ccc(S(C)(=O)=O)cc3)CC2)n1', 'pEC50', 7.56),
  ('Cc1cc(C#N)cc(C)c1Oc1cc(-c2ccncc2)nc(NC2CCN(Cc3ccc(S(C)(=O)=O)cc3)CC2)n1', 'pEC50', 7.29);

As a next step, examine the molecule that follows.
Query (molecule): Cc1cc(C#N)cc(C)c1Oc1cc(-c2cccnc2)nc(NC2CCN(Cc3ccc(C(N)=O)cc3)CC2)n1 ; field requested: pEC50
7.82

----------
- System: Human immunodeficiency virus 1
- Method summary: Antiviral activity against HIV-1 harboring RT Y181C mutant infected in human MT4 cells assessed as protection against virus-induced cytopathic effect by MTT assay
- Format: functional, organism-based
- Measurement context: Human immunodeficiency virus 1, MT4
Parameter measured: pEC50
Remember, pEC50 is on a log scale: it is -log10 of the molar concentration.

I'd like to know its pEC50. The molecule in question is Cc1cc(C#N)cc(C)c1Oc1cc(-c2ccsc2)nc(NC2CCN(Cc3ccc(S(N)(=O)=O)cc3)CC2)n1
7.43

So what's the measured pEC50 for this one? Cc1ccnc2c1NC(=O)c1cccnc1N2C1CC1
5.04

Item under review: Cc1cc(C#N)cc(C)c1Oc1cc(-c2cncnc2)nc(NC2CCN(Cc3ccc(S(N)(=O)=O)cc3)CC2)n1 . Reported pEC50?
7.59

Give its pEC50 value. Item: Cc1cc(C#N)cc(C)c1Oc1cc(-c2cccnc2)nc(NC2CCN(Cc3ccc(S(C)(=O)=O)cc3)CC2)n1
7.66

Dear colleague, I am looking for the recorded pEC50 of the following molecule: Cc1cc(C#N)cc(C)c1Oc1cc(-c2ccncc2)nc(NC2CCN(Cc3ccc(S(N)(=O)=O)cc3)CC2)n1
7.36

----------
- Method summary: Cytotoxicity against human MT4 cells assessed as reduction in cell viability by MTT assay
- Format: toxicity, cell-based
Known CC50 of a selection of compounds

Example entries begin here.
INSERT INTO results (compound, result) VALUES
  ('Cc1cc(C#N)cc(C)c1Oc1nc(Nc2ccc(C#N)cc2)nc(N)c1Br [ETRAVIRINE]', '> 4.59 µM'),
  ('O=C1Nc2ccc(Cl)cc2[C@@](C#CC2CC2)(C(F)(F)F)O1 [EFAVIRENZ]', '> 6.34 µM');

Field: next compound
Entry under review: Cc1ccnc2c1NC(=O)c1cccnc1N2C1CC1 [NEVIRAPINE] . Reported CC50?
> 15 µM

----------
- Method summary: Selectivity index, ratio of CC50 for human MT4 cells to EC50 for wild-type HIV-1 IIIB infected in human MT4 cells
- Assay type: toxicity, cell-based
- Measurement context: read-out: Ratio CC50/EC50
Parameter measured: selectivity ratio

Answered examples (7):
INSERT INTO results (smiles_structure, result) VALUES
  ('Cc1cc(C#N)cc(C)c1Oc1cc(-c2ccsc2)nc(NC2CCN(Cc3ccc(S(C)(=O)=O)cc3)CC2)n1', '> 1310'),
  ('Cc1cc(C#N)cc(C)c1Oc1cc(-c2cccs2)nc(NC2CCN(Cc3ccc(S(C)(=O)=O)cc3)CC2)n1', 3000),
  ('Cc1cc(C#N)cc(C)c1Oc1cc(-c2cccs2)nc(NC2CCN(Cc3ccc(C(N)=O)cc3)CC2)n1', 4310),
  ('Cc1ccnc2c1NC(=O)c1cccnc1N2C1CC1', '> 73'),
  ('Cc1cc(C#N)cc(C)c1Oc1cc(-c2ccsc2)nc(NC2CCN(Cc3ccc(C(N)=O)cc3)CC2)n1', 4680),
  ('Cc1cc(C#N)cc(C)c1Oc1cc(-c2ccco2)nc(NC2CCN(Cc3ccc(S(N)(=O)=O)cc3)CC2)n1', 2900),
  ('Cc1cc(C#N)cc(C)c1Oc1cc(-c2cccnc2)nc(NC2CCN(Cc3ccc(C(N)=O)cc3)CC2)n1', 4760);

Tell me the measured selectivity ratio of Cc1cc(C#N)cc(C)c1Oc1cc(-c2ccncc2)nc(NC2CCN(Cc3ccc(C(N)=O)cc3)CC2)n1 , please.
2870
